Field: MIC against P. aeruginosa. Provide a value for each of the substances that follow.
- Tested on: Pseudomonas aeruginosa
- assay comment: MIC against Gram-negative bacteria: Pseudomonas aeruginosa
- Assay type: cell-based
- setup conditions: Pseudomonas aeruginosa; 5×10^5 CFU/mL; 10 h cultivation at 37° C.
- Description: 1. Gram-negative bacteria, such as E. coli BL21, Pseudomonas aeruginosa, Klebsiella pneumonia, Enterobacter cloacae, Aeromonas hydrophila, Citrobacter diversus, Moraxella catarrhalis, Proteus mirabilis, Proteus vulgaris, Serratia marcescens, etc were streaked on solid LB medium and cultured respectively. Then, typical clones were picked, inoculated into common liquid LB medium respectively, and cultured at 37° C. with shaking at 185 rpm until the McFarland specific turbidity was 0.5. […]
Form entry: enter the amount, then its unit.

(Q) Item PRT1465 (CECDSLGTLPGTICDPISGQCLCVPNRQGRRCNQCQPGFYISPGNATGCLP; listed as Homo sapiens) : provide MIC against P. aeruginosa
(A) 50 µg/mL

(Q) Give the reported value of MIC against P. aeruginosa for this record: PRT1493 (QQAECPGGCRNGGFCNERRICECPDGFHGPHCE; listed as Homo sapiens)
(A) 12.5 µg/mL

(Q) Answer with the recorded MIC against P. aeruginosa for the substance listed here: PRT1391 (PLPVCQEQCSGHGTFLLDAGVCSCDPKWTGSDCS; listed as Homo sapiens)
(A) 12.5 µg/mL

(Q) Indicate the recorded MIC against P. aeruginosa value for this substance: PRT1461 (CNCNTSGTVDGDITCHQNSGQCKCKANVIGLRCDHCNFGFKFLRSFNDVGCEP; listed as Homo sapiens)
(A) 50 µg/mL

(Q) Give the reported value of MIC against P. aeruginosa for this record: PRT1437 (DVNECADGAHPPCHASARCRNTKGGFQCLCADPYELGDDGRTCV; listed as Homo sapiens)
(A) 12.5 µg/mL

(Q) Tell me MIC against P. aeruginosa reported for PRT1402 (DGCPDLCNGNGRCTLGQNSWQCVCQTGWRGPGCN; listed as Homo sapiens)
(A) 25 µg/mL

(Q) Tell me MIC against P. aeruginosa reported for PRT1433 (PPRRCDSNPCFRGVQCTDSRDGFQCGPCPEGYTGNGITCI; listed as Homo sapiens)
(A) 12.5 µg/mL

(Q) In one line, give reported MIC against P. aeruginosa of the entry PRT1404 (RAACPVLCSGNGQYSKGRCLCFSGWKGTECD; listed as Homo sapiens) .
(A) 50 µg/mL

(Q) Return reported MIC against P. aeruginosa. Input substance: PRT1407 (LKTMCPDQCSGHGTYLQESGSCTCDPNWTGPDCS; listed as Homo sapiens)
(A) 12.5 µg/mL

(Q) Give the reported value of MIC against P. aeruginosa for this record: PRT1381 (GMRSCPRGCSQRGRCENGRCVCNPGYTGEDC; listed as Homo sapiens)
(A) 50 µg/mL

(Q) Name the recorded MIC against P. aeruginosa of the substance listed here: PRT1440 (DKDECSKDNGGCQHECVNTMGSYMCQCRNGFVLHDNKHDCK; listed as Homo sapiens)
(A) 12.5 µg/mL

(Q) Given the substance PRT1385 (GVRSCPGDCNQRGRCEDGRCVCWPGYTGTDC; listed as Homo sapiens) , write its reported MIC against P. aeruginosa.
(A) 12.5 µg/mL

(Q) For the substance PRT1480 (PGPCDSQPCQNGGTCVPEGLDGYQCLCPLAFGGEANCA; listed as Homo sapiens) , report MIC against P. aeruginosa.
(A) 25 µg/mL

(Q) Find the measured MIC against P. aeruginosa of PRT1409 (RACHPRCAEHGTCKDGKCECSQGWNGEHCT; listed as Homo sapiens) and report it.
(A) 12.5 µg/mL

(Q) # return recorded MIC against P. aeruginosa for entry PRT1424 (CQMFCNQTACPADCDPNTQASCECPEGYILDDGFICT; listed as Homo sapiens)
(A) 50 µg/mL

(Q) Could you please provide reported MIC against P. aeruginosa for PRT1447 (GCGAGRWGPGCTKECPGCLHGGVCHDHDGECVCPPGFTGTRCE; listed as Homo sapiens) ? Thanks!
(A) 12.5 µg/mL
